# Assay name: Cytotoxicity against mouse macrophage cells assessed as cell viability at 1 ug/100 ul after 24 hrs by MTT assay
# Format: cell-based
# Condition context: read-out: Activity
Property: viability at 24 h, 1 ug/100 ul (%)
Give the value in % but do not write % after it.

Tell me the measured viability at 24 h, 1 ug/100 ul of CC(c1cc(F)ccc1Oc1nc2ccc(-n3cc(-c4ccccc4)nn3)cc2cc1Cc1ccccc1)n1ccnc1 (stereo not drawn) , please.
100

Tell me the measured viability at 24 h, 1 ug/100 ul of CC(O)c1cc(F)ccc1Oc1nc2ccc(NC(=O)Nc3cccc([N+](=O)[O-])c3)cc2cc1Cc1ccccc1 (stereo not drawn) , please.
91

Tell me the measured viability at 24 h, 1 ug/100 ul of COc1cccc(NC(=O)Nc2ccc3nc(Oc4ccc(F)cc4C(C)O)c(Cc4ccccc4)cc3c2)c1 (stereo not drawn) , please.
100
